# TEST DESCRIPTION: phase 1 single ascending dose study, pharmacokinetics
# Type: in vivo, human
# PROTOCOL CONDITIONS: both sexes, human, plasma, po, 30 mg, 30 mg single oral dose, fasted, n=6; mean (SD)
RECORDED METRIC: Cmax (ng/mL)
The answer is to be given in ng/mL; state only the numeric part.

Query :: Using the record for CC1CCCN1C(=O)c1nc(C(=O)NCC(C)(C)O)sc1-c1ccc(C(O)(C(F)(F)F)C(F)(F)F)c(Cl)c1Cl (stereo not shown) , report its Cmax.
Result :: 146

----------
# MEASURED TARGET: NK2 (Homo sapiens)
# Sequence (P21452 1-398): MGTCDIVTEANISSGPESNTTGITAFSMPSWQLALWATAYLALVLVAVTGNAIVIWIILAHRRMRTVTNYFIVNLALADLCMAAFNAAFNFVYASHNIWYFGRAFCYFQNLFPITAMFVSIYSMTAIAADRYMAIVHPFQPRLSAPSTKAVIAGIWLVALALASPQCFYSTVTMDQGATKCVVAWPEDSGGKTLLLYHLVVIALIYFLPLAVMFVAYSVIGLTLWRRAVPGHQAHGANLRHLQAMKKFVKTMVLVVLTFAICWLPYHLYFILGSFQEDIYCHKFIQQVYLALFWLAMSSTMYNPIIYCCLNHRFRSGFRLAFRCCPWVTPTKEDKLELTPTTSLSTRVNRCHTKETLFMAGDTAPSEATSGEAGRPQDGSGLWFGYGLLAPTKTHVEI
# TEST DESCRIPTION: follow-up functional study
# PROTOCOL CONDITIONS: read-out: IC50 in follow up functional assays
pIC50: −log10 of the molar value.
RECORDED METRIC: pIC50

Query :: For CC1CCCN1C(=O)c1nc(C(=O)NCC(C)(C)O)sc1-c1ccc(C(O)(C(F)(F)F)C(F)(F)F)c(Cl)c1Cl (stereo not shown) , what is its reported pIC50?
Result :: < 4.52

From: paper PMC8155022
